Biological target: T1, mouse BR3 extracellular domain (mouse, UniProt Q9D8D0 1-64)
T1 construct: also called mBR3-ECD; mBR-ECD
T1 sequence: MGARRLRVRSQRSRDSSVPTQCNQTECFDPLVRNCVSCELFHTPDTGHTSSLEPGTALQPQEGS
Assay: phage competition ELISA
reported.property: pIC50
A value of pIC50 is the negative decimal logarithm of a concentration given in moles per litre.

## Input Please give measured pIC50 of the following entry: 9 (Fab, V domains shown, also called V3-9) VH: EVQLVESGGGLVQPGGSLRLSCAASGFTISSNSIHWVRQAPGKGLEWVAWITPSDGNTDYADSVKGRFTISADTSKNTAYLQMNSLRAEDTAVYYCARRVCYNRLGVCAGGMDYWGQGTLVTVSS VL: DIQMTQSPSSLSASVGDRVTITCRASQDVSTAVAWYQQKPGKAPKLLIYSASFLYSGVPSRFSGSGSGTDFTLTISSLQPEDFATYYCQQSHNTPPTFGQGTKVEIKR
## Output 8.21

## Input Please give measured pIC50 of the following entry: 3 (Fab, V domains shown, also called V3-3) VH: EVQLVESGGGLVQPGGSLRLSCAASGFTISSNSIHWVRQAPGKGLEWVAWVTPSGGSTDYADSVKGRFTISADTSKNTAYLQMNSLRAEDTAVYYCARRVCYNRLGVCAGGMDYWGQGTLVTVSS VL: DIQMTQSPSSLSASVGDRVTITCRASQDVSTAVAWYQQKPGKAPKLLIYSASFLYSGVPSRFSGSGSGTDFTLTISSLQPEDFATYYCQQSRISPPTFGQGTKVEIKR
## Output 7.79

## Input Please give measured pIC50 of the following entry: 35 (Fab, V domains shown, also called V3-35) VH: EVQLVESGGGLVQPGGSLRLSCAASGFTISSNSIHWVRQAPGKGLEWVAWVTPGVGSTDYADSVKGRFTISADTSKNTAYLQMNSLRAEDTAVYYCARRVCYNRLGVCAGGMDYWGQGTLVTVSS VL: DIQMTQSPSSLSASVGDRVTITCRASQDVSTAVAWYQQKPGKAPKLLIYSASFLYSGVPSRFSGSGSGTDFTLTISSLQPEDFATYYCQQSLMTPPTFGQGTKVEIKR
## Output 7.66

## Input Please give measured pIC50 of the following entry: 27 (Fab, V domains shown, also called V3-27) VH: EVQLVESGGGLVQPGGSLRLSCAASGFTISSNSIHWVRQAPGKGLEWVAWITPSDGNTDYADSVKGRFTISADTSKNTAYLQMNSLRAEDTAVYYCARRVCYNHLGVCAGGMDYWGQGTLVTVSS VL: DIQMTQSPSSLSASVGDRVTITCRASQDVSTAVAWYQQKPGKAPKLLIYSASFLYSGVPSRFSGSGSGTDFTLTISSLQPEDFATYYCQQSRMSPPTFGQGTKVEIKR
## Output 8.85

Data origin, for the record: patent US20100280227A1
